All values here come from patent US20190144375A1.

Heads up, these compounds all have pIC50 values measured for GST-tagged ROR gamma ligand binding domain (LBD) (Homo sapiens).
pIC50: −log10 of the molar value.

| compound | pIC50 |
| --- | --- |
| Cc1cc(Cl)ccc1N(C)C(=O)c1ccc(NC(=O)Cc2ccc(C(F)(F)C(C)O)cc2)cc1 (stereo not drawn) | > 7.30 |
| Cc1ccc(N(C)C(=O)c2ccc(NC(=O)Cc3ccc(C(F)(F)[C@H](C)O)cc3)cc2)c(Cl)c1 | > 7.30 |
| Cc1ccc(N(C)C(=O)c2ccc(NC(=O)Cc3ccc(C(F)(F)C(C)O)cc3)cc2)c(C2CC2)c1 (stereo not drawn) | > 7.30 |
| CCC(F)(F)c1ccc(CC(=O)Nc2ccc(C(=O)N(C)c3cc(C)cc(-c4ccccc4F)c3)cc2)cc1 | 7.00 to 7.30 |
| Cc1ccc(N(C)C(=O)c2ccc(NC(=O)Cc3ccc(C(F)(F)C(C)O)cc3)cc2)c(Cl)c1 (stereo not drawn) | > 7.30 |
| Cc1cc(-c2ccccc2F)cc(N(C)C(=O)c2ccc(NC(=O)Cc3ccc(C(F)(F)C(C)O)cc3)cc2)c1 (stereo not drawn) | 7.00 to 7.30 |
| COCC(F)(F)c1ccc(CC(=O)Nc2ccc(C(=O)N(C)[C@H](C)c3ccc(Cl)cc3)cc2)cc1 | < 7.00 |
| Cc1cc(C)cc(N(C)C(=O)c2ccc(NC(=O)Cc3ccc(C(F)(F)CO)cc3)cc2)c1 | > 7.30 |
| Cc1cccc(Cl)c1N(C)C(=O)c1ccc(NC(=O)Cc2ccc(C(F)(F)C(C)O)cc2)cc1 (stereo not drawn) | 7.00 to 7.30 |
| COCC(F)(F)c1ccc(CC(=O)Nc2ccc(C(=O)N(C)c3cc(C)cc(C)c3)cc2)cc1 | > 7.30 |
| CC(O)C(F)(F)c1ccc(CC(=O)Nc2ccc(C(=O)N(C)[C@@H](c3ccc(Cl)cc3)C3CC3)cc2)cc1 (stereo partly drawn) | 7.00 to 7.30 |
| Cc1cc(C)c(N(C)C(=O)c2ccc(NC(=O)Cc3ccc(C(F)(F)C(C)O)cc3)cc2)c(Cl)c1 (stereo not drawn) | > 7.30 |
| CC(O)C(F)(F)c1ccc(CC(=O)Nc2ccc(C(=O)N(C)c3cccc(Cl)c3F)cc2)cc1 (stereo not drawn) | > 7.30 |
| Cc1cc(C)cc(N(C)C(=O)c2ccc(NC(=O)Cc3ccc(C(F)(F)C(C)(C)O)cc3)cc2)c1 | < 7.00 |
| Cc1ccc(N(C)C(=O)c2ccc(NC(=O)Cc3ccc(C(F)(F)[C@@H](C)O)cc3)cc2)c(Cl)c1 | > 7.30 |
